Assign koff to each entry below.
Biological target: T1, cTnI quality control product recombinant protein (human, UniProt P19429 1-210, limits assumed)
T1 construct: the assay paragraphs only say cTnI; also called cardiac troponin I; cTnI antigen
T1 sequence (P19429 whole entry): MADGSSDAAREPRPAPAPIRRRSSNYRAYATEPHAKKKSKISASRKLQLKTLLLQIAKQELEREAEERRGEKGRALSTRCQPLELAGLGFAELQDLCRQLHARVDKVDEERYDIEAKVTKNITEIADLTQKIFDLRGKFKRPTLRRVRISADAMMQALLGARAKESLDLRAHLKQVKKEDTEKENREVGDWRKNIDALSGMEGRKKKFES
Assay: AMC biosensor, antibody on sensor
Could you give me the number in s⁻¹? Just the number is fine.

Report koff for WT 1-7 (antibody, V domains shown) VH: QVQLQQSGTELAKPGASVKFSCKASDYTFTTYWMYWIKQRPGQGLEWIGYLNPSTGHTEYNQKFKDKATLTADKSSSTAYMQLNSLTSEDSAVYYCARRYYGPFAMDYWGQGTSVTVSS VL: EIFLTQSPAIMSASPGEKVTMTCSASTSVSYAHWYQQKSGTSPKRWIYDSSKLASGIPVRFSGSGSGTSYSLTISSMEAEDAATYYCQNWSTNPYTFGGGTKLEIKR 0.000795

Report koff for Mutation 1-8 (antibody, V domains shown) VH: QVQLQQSGTELAKPGASVKFSCKASGYTFSTYWMYWIKQRPGQGLEWIGYINPSTGHTDYNQKFKDKATLTADKSSSTAYMQLNSLTSEDSAVYYCARRYWGPFGMDYWGQGTSVTVSS VL: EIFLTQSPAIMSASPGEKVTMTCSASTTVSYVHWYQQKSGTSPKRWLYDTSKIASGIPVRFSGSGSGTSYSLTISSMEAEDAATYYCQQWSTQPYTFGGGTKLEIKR 0.000105
